These measurements were taken from patent US11160808B2.

# Tested on: Math1 enhancer and minimal promoter Luciferase reporter in HEK cells
# procedure text: Math1 Luciferase reporter assay in HEK cells
# Assay type: cell-based, human
# applied conditions: Homo sapiens, HEK293; read-out: IC50
pIC50: −log10 of the molar value.
Consider the following molecules and their measured pIC50 readings.

molecule	measurement target	value modifier	pIC50
O=c1ccc2ccc(OCc3ccc(F)cc3)cc2o1 [CP-0063508, 7-(4-fluorobenzyloxy)-2H-chromen-2-one]	Math1 enhancer and minimal promoter Luciferase reporter in HEK cells	<	5.00
Brc1ccc(-c2nc(-c3cccnc3)no2)cc1 [CP-0070367]	Math1 enhancer and minimal promoter Luciferase reporter in HEK cells	=	5.70
Cc1ccc(-c2nc(-c3cccnc3)no2)c(Cl)c1 [CP-0068929]	Math1 enhancer and minimal promoter Luciferase reporter in HEK cells	=	6.40
Cc1ccccc1-c1nnc(-c2ccccc2)o1 [CP-0062030, 2-phenyl-5-o-tolyl-1,3,4-oxadiazole]	Math1 enhancer and minimal promoter Luciferase reporter in HEK cells	=	5.70
Fc1ccc(-c2cnc(N3CCOCC3)nc2)cc1 [CP-0059642]	Math1 enhancer and minimal promoter Luciferase reporter in HEK cells	=	6.00
Clc1ccc2nc(-c3ccccc3)n(OCc3ccccc3Cl)c2c1 [CP-0000540]	Math1 enhancer and minimal promoter Luciferase reporter in HEK cells	=	5.89
O=C(c1ccc(-c2ccc(Br)cc2)o1)N1CCOCC1 [CP-0061777]	Math1 enhancer and minimal promoter Luciferase reporter in HEK cells	<	5.00
COc1ccccc1N1CCN(c2ccc3ccccc3n2)CC1 [CP-0087799]	Math1 enhancer and minimal promoter Luciferase reporter in HEK cells	=	6.00

* * *

# Test system: Math1 enhancer and minimal promoter Luciferase reporter in HEK cells
# procedure text: Math1 Luciferase reporter assay in HEK cells
# Format: cell-based, human
# applied conditions: Homo sapiens, HEK293; read-out: IC50
Each record's IC50 is compared with low-valued (below 400 nM), mid-valued (400 nM to below 2000 nM), high-valued (2000 nM or more) to give its class.

compound	measurement target	answer label
COc1ccc(C2=NN3C(C2)c2cccc(OC)c2OC32CCCCC2)cc1 (stereo not drawn)	Math1 enhancer and minimal promoter Luciferase reporter in HEK cells	mid-valued
COc1ccc(COn2c(-c3ccc(OC)cc3)nc3ccc(Cl)cc32)cc1	Math1 enhancer and minimal promoter Luciferase reporter in HEK cells	low-valued
CC(C)Oc1ccc(C(=O)Nc2sccc2C#N)cc1	Math1 enhancer and minimal promoter Luciferase reporter in HEK cells	low-valued
Cc1cc(Cl)ccc1OCc1nc(-c2ccncc2)no1	Math1 enhancer and minimal promoter Luciferase reporter in HEK cells	high-valued
Cc1cccc(NC(=O)c2ccc3c(c2)OCCO3)n1	Math1 enhancer and minimal promoter Luciferase reporter in HEK cells	mid-valued
O=C(Cn1nnc2ccccc21)NC1Cc2ccccc2C1	Math1 enhancer and minimal promoter Luciferase reporter in HEK cells	high-valued
COc1ccc(-c2ccc3c(n2)CCCN3)cc1	Math1 enhancer and minimal promoter Luciferase reporter in HEK cells	low-valued
O=C(Nc1nc2ccc(Br)cc2s1)c1cccs1	Math1 enhancer and minimal promoter Luciferase reporter in HEK cells	high-valued
COc1ccc(OCC(=O)Nc2nccs2)cc1	Math1 enhancer and minimal promoter Luciferase reporter in HEK cells	low-valued
Cc1cccc(-c2ccc3ccccc3n2)c1	Math1 enhancer and minimal promoter Luciferase reporter in HEK cells	mid-valued
Cc1cc(C(=O)Nc2ccccc2)c(C)n1Cc1cccs1	Math1 enhancer and minimal promoter Luciferase reporter in HEK cells	high-valued
COc1ccc(-c2cn3ccsc3n2)cc1	Math1 enhancer and minimal promoter Luciferase reporter in HEK cells	mid-valued
Cc1ccccc1OCc1nc2ccccc2[nH]1	Math1 enhancer and minimal promoter Luciferase reporter in HEK cells	low-valued
c1ccc(OCc2nc(-c3ccccn3)no2)cc1	Math1 enhancer and minimal promoter Luciferase reporter in HEK cells	high-valued
Cn1c(COc2ccc(F)cc2)nc2ccccc21	Math1 enhancer and minimal promoter Luciferase reporter in HEK cells	mid-valued
Cc1ccc(-c2cnc3ccccc3n2)cc1C	Math1 enhancer and minimal promoter Luciferase reporter in HEK cells	high-valued
CCN(CC)c1ncnc2c1cnn2-c1cccc(C)c1	Math1 enhancer and minimal promoter Luciferase reporter in HEK cells	high-valued
CCN(CC)C(=O)c1cc2cc3cc(OC)ccc3nc2s1	Math1 enhancer and minimal promoter Luciferase reporter in HEK cells	high-valued
COc1ccc(-c2nc3ccc(Cl)cc3n2OCc2ccccc2Cl)cc1	Math1 enhancer and minimal promoter Luciferase reporter in HEK cells	low-valued

* * *

Consider the following compounds and their measured maximal fold induction readings.
# Tested on: Math1 enhancer and minimal promoter Luciferase reporter in HEK cells
# procedure text: Math1 Luciferase reporter assay in HEK cells
# Type: cell-based, human
# applied conditions: Homo sapiens, HEK293; read-out: Maximum (Fold DMSO)
endpoint label: maximal fold induction

compound	measurement target	value reported
Cc1ccc(-c2nc(-c3cccnc3)no2)c(Cl)c1	Math1 enhancer and minimal promoter Luciferase reporter in HEK cells	2
NC(=O)c1sc2nc3c(cc2c1N)CCCCC3	Math1 enhancer and minimal promoter Luciferase reporter in HEK cells	1.9
O=C(Cn1nnc2ccccc21)NC1Cc2ccccc2C1	Math1 enhancer and minimal promoter Luciferase reporter in HEK cells	2.3
Fc1ccc(-c2cnc(N3CCOCC3)nc2)cc1	Math1 enhancer and minimal promoter Luciferase reporter in HEK cells	2.2
CC(=O)Nc1cc(-c2sc3ccc(Cl)cc3c2C)n[nH]1	Math1 enhancer and minimal promoter Luciferase reporter in HEK cells	1.6
c1ccc2cc(-c3cc4ccccc4[nH]3)ccc2c1	Math1 enhancer and minimal promoter Luciferase reporter in HEK cells	2.1
Cc1ccc(-c2noc(CN3CCCCC3)n2)cc1	Math1 enhancer and minimal promoter Luciferase reporter in HEK cells	1.7
O=C(Nc1ccc(Cl)cn1)c1ccc(Br)cc1	Math1 enhancer and minimal promoter Luciferase reporter in HEK cells	1.6
O=C(CSc1nc2ccccc2o1)Nc1ccccc1Cl	Math1 enhancer and minimal promoter Luciferase reporter in HEK cells	2
Cc1ccc2nc(-c3cc4ccccc4oc3=N)[nH]c2c1	Math1 enhancer and minimal promoter Luciferase reporter in HEK cells	2.1
CC(C)COc1ccc(C2Nc3ccccc3C(=O)N2c2ccc3ccccc3c2)cc1 (stereo not drawn)	Math1 enhancer and minimal promoter Luciferase reporter in HEK cells	2
Cn1c(CCc2ccc(N)cc2)nc2ccccc21	Math1 enhancer and minimal promoter Luciferase reporter in HEK cells	1.8
O=C(c1ccc(-c2ccc(Br)cc2)o1)N1CCOCC1	Math1 enhancer and minimal promoter Luciferase reporter in HEK cells	2.1
c1ccc(CCn2nnc3ccccc32)cc1 [CP-0070871, 1-phenethyl-1H-benzo[d][1,2,3]triazole]	Math1 enhancer and minimal promoter Luciferase reporter in HEK cells	2
Cc1ccccc1OCc1nc2ccccc2[nH]1	Math1 enhancer and minimal promoter Luciferase reporter in HEK cells	1.8
Cc1cc(Cl)ccc1OCc1nc(-c2ccncc2)no1	Math1 enhancer and minimal promoter Luciferase reporter in HEK cells	1.8
COc1ccc(-c2cc(-c3ccccc3)[nH]n2)c(O)c1	Math1 enhancer and minimal promoter Luciferase reporter in HEK cells	1.5
Oc1ccc(-c2nc3ccccc3[nH]2)cc1 [CP-0047659, 4-(1H-benzo[d]imidazol-2-yl)phenol]	Math1 enhancer and minimal promoter Luciferase reporter in HEK cells	2.3
CC(C)Oc1ccc(C(=O)Nc2sccc2C#N)cc1	Math1 enhancer and minimal promoter Luciferase reporter in HEK cells	1.8
COc1cc(C)c2c(=O)cc(-c3ccccc3)oc2c1	Math1 enhancer and minimal promoter Luciferase reporter in HEK cells	2
O=C(c1cc(-c2ccc(Br)cc2)on1)N1CCOCC1	Math1 enhancer and minimal promoter Luciferase reporter in HEK cells	2

* * *

# Tested on: Math1 enhancer and minimal promoter Luciferase reporter in HEK cells
# procedure text: Math1 Luciferase reporter assay in HEK cells
# Assay type: cell-based, human
# applied conditions: Homo sapiens, HEK293; read-out: IC50
pIC50: −log10 of the molar value.
Please mark 1.0 if the recorded pIC50 is equal to or greater than 6, and 0.0 if it falls below.

compound	answer label
O=C(Nc1ccc(Cl)cn1)c1sc2ccccc2c1Cl	0.0
Cc1ccc(-c2noc(CN3CCCCC3)n2)cc1	0.0
O=C(Nc1ccccc1Cl)C(=O)c1c[nH]c2ccccc12	0.0
COc1cc(C)c2c(=O)cc(-c3ccccc3)oc2c1	0.0
COc1cccc(Nc2ncnc3[nH]cnc23)c1	0.0
O=C(CSc1nc2ccccc2o1)Nc1ccccc1Cl	0.0
Cc1cccc(/C(N)=N/OC(=O)c2cccnc2)c1	0.0
COc1cccc2c1OCC(C(=O)Nc1ccc(Cl)cc1Cl)=C2	1.0
CC(=O)Nc1ccc2nc(NC(=O)c3ccco3)sc2c1	1.0
CC(=O)c1sc(-c2ccc(C(C)(C)C)cc2)cc1N	1.0
c1ccc2cc(-c3cc4ccccc4[nH]3)ccc2c1	1.0
CC(C)(C)c1ccc(C(=O)NCC2CCCO2)cc1 (centres unmarked)	1.0
c1ccc(CCn2nnc3ccccc32)cc1 [CP-0070871, 1-phenethyl-1H-benzo[d][1,2,3]triazole]	0.0

* * *

Consider the following compounds and their measured maximal fold induction readings.
# System: Math1 enhancer and minimal promoter Luciferase reporter in HEK cells
# procedure text: Math1 Luciferase reporter assay in HEK cells
# Type: cell-based, human
# applied conditions: Homo sapiens, HEK293; read-out: Maximum (Fold DMSO)
endpoint label: maximal fold induction

compound	value reported
COc1ccc(COn2c(-c3ccc(OC)cc3)nc3ccc(Cl)cc32)cc1 [CP-0000557]	2.6
Clc1ccc2oc(-c3ccccc3)nc2c1 [CP-0079983, 5-chloro-2-phenylbenzo[d]oxazole]	1.8
COc1cccc2c1OCC(C(=O)Nc1ccc(Cl)cc1Cl)=C2 [CP-0000928]	2
COc1ccc(-c2csc(Nc3ncccc3C)n2)cc1 [CP-0071862]	1.8
Cn1c(COc2ccc(F)cc2)nc2ccccc21 [CP-0074806]	1.8
